- method notes: TOX21_p53_BLA_p2_viability: Viability Assessment in the Tox21 HCT-116 p53 Agonism Beta-lactamase Assay, Phase 2 (AID 2283591);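 further: compound exposure lasted 16 h at 37 °C; actives lower the ATP signal meaning cytotoxicity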
Results filed as inconclusive are left out. Active and inactive are the calls of the source. How the source made its calls: active means hit-call score of the fitted dose curve at least 0.9, where 1 is the maximum; inconclusive means response in the unintended direction; inactive means score below 0.9.
measure: AC50

compound	measure	endpoint value
CCC(C)C(C(=O)OCC[N+](C)(CC)CC)c1ccccc1 (stereo unspecified)	AC50	inactive
CCCN(CCc1cccs1)[C@H]1CCc2c(O)cccc2C1	AC50	inactive
CC(C[N+](C)(C)C)OC(N)=O (stereo unspecified)	AC50	inactive
CC(COc1ccc(C(C)(C)C)cc1)OS(=O)OCCCl (stereo unspecified)	AC50	inactive
CCC(=O)Oc1ccc2c(c1)CC[C@@H]1[C@@H]2CC[C@]2(C)[C@@H](OC(=O)CC)CC[C@@H]12	AC50	inactive
C=C1CC[C@H](O)C/C1=C/C=C1\CCC[C@]2(C)[C@@H]([C@H](C)CCCC(C)(C)O)CC[C@@H]12	AC50	12.8 µM (active)
COc1cc(C(=O)NS(=O)(=O)c2ccccc2C)ccc1Cc1cn(C)c2ccc(NC(=O)OC3CCCC3)cc12	AC50	14.2 µM (active)
OCCSc1ccccc1	AC50	inactive
O=S(=O)(O)CCO	AC50	inactive
OC1OC[C@@H](O)[C@H](O)[C@@H]1O (stereo partly specified)	AC50	inactive
CC1=C(/C=C/C(C)=C/C=C/C(C)=C/C=C/C=C(C)/C=C/C=C(C)/C=C/C2=C(C)CCCC2(C)C)C(C)(C)CCC1	AC50	inactive
Cc1ccc(C2(O)CCN(CCCC(=O)c3ccc(F)cc3)CC2)cc1	AC50	inactive
O=C1NC(=O)C2CC=CCC12 (stereo unspecified)	AC50	inactive
C=CC(=O)O	AC50	inactive
CC=C(C(=CC)c1ccc(O)cc1)c1ccc(O)cc1	AC50	inactive
O=CC=C(c1ccccc1)c1ccccc1	AC50	inactive
C#C[C@]1(O)CC[C@H]2[C@@H]3CCC4=C/C(=N/O)CC[C@@H]4[C@H]3CC[C@@]21CC	AC50	inactive
C[N+]1(CC2COC(c3ccccc3)(C3CCCCC3)O2)CCCCC1 (stereo unspecified)	AC50	inactive
Cc1cc(C(C)(C)C)c(O)c(C)c1CC1=NCCN1	AC50	inactive
C=CCCCCCCC=C	AC50	inactive
O=C(O)c1cc(Cl)cc(Cl)c1O	AC50	inactive
OC(CCN1CCCC1)(c1ccccc1)C1CCCCC1 (stereo unspecified)	AC50	inactive
O=C1c2ccccc2S(=O)(=O)N1CCCCN1CCN(c2ncccn2)CC1	AC50	inactive
C1CCCC1	AC50	inactive
C[C@H](CS)C(=O)N1CCC[C@H]1C(=O)O	AC50	inactive
NCCCCCC(=O)O	AC50	inactive
C[C@]12CCC(=O)C=C1[C@@H]1C[C@@H]1[C@H]1[C@@H]3[C@@H]4C[C@@H]4[C@@]4(CCC(=O)O4)[C@@]3(C)CC[C@@H]12	AC50	inactive
CCOC(=O)[C@H](CCc1ccccc1)N[C@@H](C)C(=O)N(CC(=O)O)C1Cc2ccccc2C1	AC50	inactive
CCCCCCCC[N+](CCCCCCCC)(CCCCCCCC)CCCCCCCC	AC50	18.9 µM (active)
CCCCNc1cc(C(=O)O)cc(S(N)(=O)=O)c1Oc1ccccc1	AC50	inactive
CCCCCCCCCCn1cc[n+](CCCCCCCCCC)c1C	AC50	44.2 µM (active)
CCCCCCC(=O)O[C@H]1CC[C@H]2[C@@H]3CCc4cc(O)ccc4[C@H]3CC[C@]12C	AC50	inactive
CCCCNCCCC	AC50	inactive
O=C(CCCN1CCC(O)(c2ccc(Br)cc2)CC1)c1ccc(F)cc1	AC50	inactive
CO[C@H]1/C=C/O[C@@]2(C)Oc3c(C)c(O)c4c(O)c(cc(O)c4c3C2=O)NC(=O)/C(C)=C\C=C\[C@H](C)[C@H](O)[C@@H](C)[C@@H](O)[C@@H](C)[C@H](OC(C)=O)[C@@H]1C	AC50	inactive
CSc1nc2cc(Oc3cccc(Cl)c3Cl)c(Cl)cc2[nH]1	AC50	14.5 µM (active)
O=C(O)CCCC/C=C(\c1ccccc1)c1cccnc1	AC50	inactive
O=C(O)c1ccccc1[N+](=O)[O-]	AC50	inactive
O=[N+]([O-])c1ccc(O)c2ncccc12	AC50	inactive
CCCCCC1CCCC(=O)O1 (stereo unspecified)	AC50	inactive
Cc1ccc2c(Cl)cc(Cl)c(O)c2n1	AC50	7.81 µM (active)
COc1ccccc1N1CCN(CC(O)COc2cccc3ccccc23)CC1 (stereo unspecified)	AC50	inactive
CCCCCCCCOc1ccccc1C(=O)Nc1ccc(C(=O)OCC[N+](C)(CC)CC)cc1	AC50	28.9 µM (active)
O=C(O)[C@H](O)[C@@H](O)[C@H](O[C@@H]1O[C@H](CO)[C@H](O)[C@H](O)[C@H]1O)[C@H](O)CO	AC50	inactive
CNC(=O)C[C@@H](N)C(=O)N[C@@H](C(=O)N[C@@H]1C(=O)N2[C@@H]1SC(C)(C)[C@@H]2C(=O)O)c1ccc(O)cc1	AC50	inactive
CCCCCC=CCC1CC(=O)OC1=O (stereo unspecified)	AC50	inactive
